- METHOD NOTES: activity coefficient (dimensionless); of the first substance listed, at infinite dilution; xn = mol fraction of the nth substance listed
- EXPERIMENTAL SETUP: 333.15 K; Liquid; Chromatography; x1 = 0
Labelling field: enter 1 (yes) if recorded activity coefficient is less than 1. Enter 0 (no) if it equals or exceeds that cut-off.

Prompt: Identify whether the compound CC#N [acetonitrile] + CCCOC[n+]1ccn(Cc2ccccc2)c1.O=S(=O)([N-]S(=O)(=O)C(F)(F)F)C(F)(F)F records activity coefficient below 1.
Response: 1 (yes)

Prompt: Identify whether the compound Cc1ccccc1 [toluene] + CCCOC[n+]1ccn(C)c1.N#C[N-]C#N records activity coefficient below 1.
Response: 0 (no)

Prompt: Identify whether the compound CCCCCCCCCCC [undecane] + Cn1cc[n+](COCCCOC[n+]2ccn(C)c2)c1.O=S(=O)([N-]S(=O)(=O)C(F)(F)F)C(F)(F)F.O=S(=O)([N-]S(=O)(=O)C(F)(F)F)C(F)(F)F records activity coefficient below 1.
Response: 0 (no)

Prompt: Identify whether the compound Cc1ccc(C)cc1 [1,4-dimethylbenzene] + CCCOC[n+]1ccc(N(C)C)cc1.O=S(=O)([N-]S(=O)(=O)C(F)(F)F)C(F)(F)F records activity coefficient below 1.
Response: 0 (no)

Prompt: Identify whether the compound CC(C)O [propan-2-ol] + CCCCCCCCn1cc[n+](COCCCOC[n+]2ccn(CCCCCCCC)c2C)c1C.O=S(=O)([N-]S(=O)(=O)C(F)(F)F)C(F)(F)F.O=S(=O)([N-]S(=O)(=O)C(F)(F)F)C(F)(F)F records activity coefficient below 1.
Response: 1 (yes)

Prompt: Identify whether the compound Cc1ccccc1C [1,2-dimethylbenzene] + CCCCCCCCn1cc[n+](COCCCOC[n+]2ccn(CCCCCCCC)c2C)c1C.N#C[N-]C#N.N#C[N-]C#N records activity coefficient below 1.
Response: 0 (no)

Origin of the recorded values: the NIST ThermoML archive (doi:10.1016/j.fluid.2014.11.020)
